Reference for the values: patent US10765625B2

Tested on: D270 glioblastoma cells
assayRemarks: Cell proliferation, CCK-8 colorimetric assay
Format: cell-based
conditionNotes: 96 h, 4 d after treatment, read-out: ED50 (nM), cell growth inhibition
readoutLabel: EC50

[
  {
    "compound": "Nc1ccn([C@@H]2O[C@H](CO)[C@@H](O)C2(F)F)c(=O)n1 [compound 3, Gemcitabine, reference compound]",
    "measurement": "1.5 nM"
  }
]
